# Target Under Test: T1, recombinant CD3D&E protein (human CD3-his tag) (human, UniProt P04234 22-105; P07766 23-126, limits assumed)
# T1 construct: Analyte in Biacore; also called CD3D&E-His; CD3d&ε-His
# T1 sequence (P04234 22-105 limits assumed, chain 1 of 2): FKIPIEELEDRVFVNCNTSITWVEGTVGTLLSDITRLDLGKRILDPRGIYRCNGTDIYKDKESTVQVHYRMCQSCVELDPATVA
# T1 sequence (P07766 23-126 limits assumed, chain 2 of 2): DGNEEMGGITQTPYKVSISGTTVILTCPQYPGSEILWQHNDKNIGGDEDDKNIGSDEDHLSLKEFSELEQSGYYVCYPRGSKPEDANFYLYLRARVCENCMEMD
# Experiment Summary: SPR Biacore, Ab captured on Protein A;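 further: humanized antibodies on a Protein A chip, human CD3-his analyte flowed over in serial dilutions for 3 min, dissociation tracked 120–360 s on a Biacore T200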
Documented koff across a set of binders
Output spec: scalar in s⁻¹, unitless text.

Examples with answers:
{"columns": ["Binder", "Measurement Kind", "Observed Measurement"],
 "data": [
  ["155A9B1 chimeric mAb (antibody, V domains shown, Chimeric mAb) VH: QVQLKESGPGLVQPSQTLSLTCTVSGFSLTSYNVHWVRQPPGKGLEWMGRVRYNGDTSYNSALKSRLSISRDTSKNQAFLKMNSLQIDDTGTYYCTRGPYGGSSEPLFDYWGQGVMVTVSS VL: DIKMTQSPSFLSASVGDRVTINCKASQNINKYLNWFQQKLGEAPRLLIYTTNNLQTGIPSRFSGSGSGTDFTLTISSLQPEDVATYFCLQHNSGYTFGAGTKLELK", "koff", 0.00207],
  ["Hu155A9B1-3 (antibody, V domains shown, humanized mAb) VH: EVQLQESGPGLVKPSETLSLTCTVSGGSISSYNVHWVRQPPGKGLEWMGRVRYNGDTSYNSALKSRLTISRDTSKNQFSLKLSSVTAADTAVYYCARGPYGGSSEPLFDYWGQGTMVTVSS VL: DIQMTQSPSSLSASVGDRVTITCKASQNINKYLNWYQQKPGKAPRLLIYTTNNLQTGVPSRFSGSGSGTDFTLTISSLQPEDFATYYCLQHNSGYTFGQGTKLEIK", "koff", 0.00667],
  ["Hu153A6B1-5 (antibody, V domains shown, humanized mAb) VH: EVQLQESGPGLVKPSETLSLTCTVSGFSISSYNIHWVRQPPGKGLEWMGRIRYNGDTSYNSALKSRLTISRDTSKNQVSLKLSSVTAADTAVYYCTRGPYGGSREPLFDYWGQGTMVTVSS VL: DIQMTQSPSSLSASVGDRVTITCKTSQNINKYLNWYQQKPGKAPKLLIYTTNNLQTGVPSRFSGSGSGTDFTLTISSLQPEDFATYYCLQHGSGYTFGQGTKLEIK", "koff", 0.00177],
  ["Hu155A9B1-15 (antibody, V domains shown, humanized mAb) VH: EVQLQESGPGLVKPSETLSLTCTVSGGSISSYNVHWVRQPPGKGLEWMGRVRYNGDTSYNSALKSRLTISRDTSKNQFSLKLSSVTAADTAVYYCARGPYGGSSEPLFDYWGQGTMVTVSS VL: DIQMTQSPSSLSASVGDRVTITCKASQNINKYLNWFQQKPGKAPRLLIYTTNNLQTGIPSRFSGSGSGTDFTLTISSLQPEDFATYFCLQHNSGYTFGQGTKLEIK", "koff", 0.0152]
]}

For the next question, use this binder.
Item Hu192A7B9-10 (antibody, V domains shown, humanized mAb) VH: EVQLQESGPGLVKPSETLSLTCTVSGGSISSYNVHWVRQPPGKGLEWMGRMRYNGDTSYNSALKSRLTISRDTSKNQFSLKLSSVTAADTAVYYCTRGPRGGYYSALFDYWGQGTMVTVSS VL: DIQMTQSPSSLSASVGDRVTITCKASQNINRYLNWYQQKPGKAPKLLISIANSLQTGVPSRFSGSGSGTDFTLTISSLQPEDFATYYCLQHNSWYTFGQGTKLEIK : provide koff
0.0144
